Value source: ChEMBL document CHEMBL1201862

# Test system: OVCAR-3
# assayMethodText: NCI tumour cell line growth inhibition, 48 h
Activity calls are given as the source filed them. No stated cut-off is given here; in the data, active = GI50 up to about 1.1 µM and inactive = higher.
readoutLabel: GI50

>>> obsvalue("O=c1[nH]c(=O)n(C2OC(CO)C(O)C2O)cc1OCCCc1ccccc1 (stereo unspecified)")
"> 100 µM (inactive)"

Task: Please supply the value of reported GI50 for the item C[n+]1c2ccccc2c(C(=O)Nc2ccc(S(=O)(=O)Nc3ncccn3)cc2)c2ccccc21
Result: > 100 µM (inactive)

Task: Please supply the value of reported GI50 for the item CC(C)(Oc1ccc(C2C[C@H]2Cl)cc1)C(=O)O (stereo partly specified)
Result: > 100 µM (inactive)

Task: Please supply the value of reported GI50 for the item CCCCc1ccc(Nc2cc(=O)n(C)c(=O)[nH]2)cc1
Result: > 100 µM (inactive)

Task: Please supply the value of reported GI50 for the item CC(C)(C)c1cc2c3c(c1)C(C(F)(F)F)(C(F)(F)F)O[Te]3(C)OC2(C(F)(F)F)C(F)(F)F
Result: > 100 µM (inactive)
